Biological target: human wildtype CFTR (Homo sapiens)
Sequence (P13569 whole entry): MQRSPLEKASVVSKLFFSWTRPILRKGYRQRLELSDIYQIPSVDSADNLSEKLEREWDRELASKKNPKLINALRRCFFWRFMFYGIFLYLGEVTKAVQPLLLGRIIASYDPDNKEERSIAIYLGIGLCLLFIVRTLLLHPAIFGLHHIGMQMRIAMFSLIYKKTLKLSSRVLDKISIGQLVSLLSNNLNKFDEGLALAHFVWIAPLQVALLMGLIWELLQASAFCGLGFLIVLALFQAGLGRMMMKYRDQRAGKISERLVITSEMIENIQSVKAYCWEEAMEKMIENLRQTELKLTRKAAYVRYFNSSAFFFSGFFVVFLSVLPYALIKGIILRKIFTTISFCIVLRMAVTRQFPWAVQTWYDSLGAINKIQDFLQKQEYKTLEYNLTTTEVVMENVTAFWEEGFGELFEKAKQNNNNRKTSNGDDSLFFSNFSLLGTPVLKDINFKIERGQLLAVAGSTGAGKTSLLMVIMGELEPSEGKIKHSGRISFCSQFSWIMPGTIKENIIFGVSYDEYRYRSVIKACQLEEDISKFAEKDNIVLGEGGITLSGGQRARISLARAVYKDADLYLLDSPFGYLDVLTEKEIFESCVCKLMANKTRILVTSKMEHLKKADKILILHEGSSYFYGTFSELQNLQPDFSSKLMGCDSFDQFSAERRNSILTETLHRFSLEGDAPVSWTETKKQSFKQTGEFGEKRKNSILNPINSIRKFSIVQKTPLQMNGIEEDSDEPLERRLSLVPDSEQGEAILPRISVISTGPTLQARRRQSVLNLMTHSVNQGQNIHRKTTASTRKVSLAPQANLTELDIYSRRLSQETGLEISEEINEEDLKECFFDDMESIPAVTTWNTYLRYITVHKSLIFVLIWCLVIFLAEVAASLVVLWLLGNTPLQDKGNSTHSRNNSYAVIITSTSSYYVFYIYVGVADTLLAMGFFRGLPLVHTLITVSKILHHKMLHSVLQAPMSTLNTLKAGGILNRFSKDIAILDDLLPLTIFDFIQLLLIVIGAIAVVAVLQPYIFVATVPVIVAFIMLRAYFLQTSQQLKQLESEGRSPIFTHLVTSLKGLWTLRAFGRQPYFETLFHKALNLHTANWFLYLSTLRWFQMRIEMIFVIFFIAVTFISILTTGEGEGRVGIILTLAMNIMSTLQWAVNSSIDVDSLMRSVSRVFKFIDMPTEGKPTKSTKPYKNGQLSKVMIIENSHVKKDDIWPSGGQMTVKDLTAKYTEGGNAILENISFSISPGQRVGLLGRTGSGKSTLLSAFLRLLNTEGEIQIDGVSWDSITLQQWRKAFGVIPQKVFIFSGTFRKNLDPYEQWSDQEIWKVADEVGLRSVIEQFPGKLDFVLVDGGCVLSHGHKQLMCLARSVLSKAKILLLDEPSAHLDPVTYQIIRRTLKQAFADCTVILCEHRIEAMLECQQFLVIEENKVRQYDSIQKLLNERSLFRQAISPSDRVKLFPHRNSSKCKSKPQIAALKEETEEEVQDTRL
Test: Fluorescence cell-based assay of CFTR inhibition (YFP iodide influx, FRT cells)
Design: expressed in transfected cells; host or cells: Fisher rat thyroid (FRT) cells
Details: structure-activity discussion
measure.name: CFTR inhibitory activity (in words)

> print(dat)
                                   molecule                         measure.name  value.measured
1  O=C(O)c1ccc(NC(=S)C2SC(=S)N(c3cccc(C(F)(F)F)c3)C2=O)cc1O (stereo not drawn)  CFTR inhibitory activity (in words)        inactive
2  O=C1/C(=C/c2ccc(O)cc2)SC(=S)N1c1cccc(C(F)(F)F)c1  CFTR inhibitory activity (in words)    low activity
3  O=C1/C(=C/c2ccc(O)c(O)c2O)SC(=S)N1c1cccc(C(F)(F)F)c1  CFTR inhibitory activity (in words)    low activity
4  O=C1/C(=C/c2ccc(S(=O)(=O)[O-])cc2)SC(=S)N1c1cccc(C(F)(F)F)c1.[Na+]  CFTR inhibitory activity (in words)        inactive
5  O=C1/C(=C/c2ccncc2)SC(=S)N1c1cccc(C(F)(F)F)c1  CFTR inhibitory activity (in words)        inactive
6  O=C1/C(=C/c2cc(O)c(O)c(O)c2)SC(=S)N1c1cccc(C(F)(F)F)c1  CFTR inhibitory activity (in words)    low activity
7  O=C(O)c1ccc(CC2SC(=S)N(c3cccc(C(F)(F)F)c3)C2=O)cc1 (stereo not drawn)  CFTR inhibitory activity (in words)        inactive
